# target: T1, HLA-DR11 molecule (DRB1*1101) (human)
# T1 construct: HLA class II heterodimer
# assay-protocol: competitive ELISA, tracer HA 306-318
observation-type: IC50 (nM)
Reply numerically in nM, unit not repeated.

Below, 4 binders whose answers are already recorded.
binder: HRISTFKNWPFLEGC (synthetic 15-mer) [survivin peptide 17-31]
experimental-result: 247
--
binder: MGAPTLPPAWQPFLK (synthetic 15-mer) [survivin peptide 1-15]
experimental-result: 63
--
binder: ISTFKNWPFLEGCAC (synthetic 15-mer) [survivin peptide 19-33]
experimental-result: 147
--
binder: FEELTLGEFLKLDRE (synthetic 15-mer) [survivin peptide 93-107]
experimental-result: 548

Query string: What value of IC50 has been reported for the following binder? ERMAEAGFIHCPTEN (synthetic 15-mer) [survivin peptide 36-50]
Result string: 5590

Query string: Give the measured IC50 of AGFIHCPTENEPDLA (synthetic 15-mer) [survivin peptide 41-55] .
Result string: 1150

Query string: # lookup: IC50 of LSVKKQFEELTLGEF (synthetic 15-mer) [survivin peptide 87-101]
Result string: 2060

The measurements presented in this section are drawn from patent US20090004214A1.
